- System: HCT-116
- Assay explanation: NCI tumour cell line growth inhibition, 48 h
Active and inactive are the calls of the source. Cut-off read from the data, not from the text of the source: active = GI50 up to about 1.1 µM and inactive = higher.
Possible outcomes: class 1 for active, class 0 for inactive

Molecule: C=C1C(C)C2C(Cc3ccccc3)NC(=O)C23C(OC(C)=O)C=CC(C)(O)C(=O)C(C)C/C=C/C3C1O (configuration not stated)
Experimental system: HCT-116
Class: class 0
--
Molecule: CCCCc1c2c(nc3c1CC/C(=C\c1ccccc1)C3=O)CCCC2
Experimental system: HCT-116
Class: class 0
--
Molecule: CC1=COC(=O)c2ccccc2N1
Experimental system: HCT-116
Class: class 0
--
Molecule: CC1(C)OC(CP(c2ccccc2)c2ccccc2)C(CP(c2ccccc2)c2ccccc2)O1 (configuration not stated)
Experimental system: HCT-116
Class: class 1
--
Molecule: Cc1ccnc(NS(=O)(=O)c2ccc(NC3=CC(=O)C(=O)c4ccccc43)cc2)n1
Experimental system: HCT-116
Class: class 0
--
Molecule: CCN(CC)c1ccc2cc(C(=O)NCc3ccccc3)c(=N)oc2c1
Experimental system: HCT-116
Class: class 0
--
Molecule: C[C@]12CCCC(=O)C1C[C@H](C(=O)O)CC2 (some centres not stated)
Experimental system: HCT-116
Class: class 0
--
Molecule: C[Si](C)(C)OC1(C#N)C2C3CC4C2C(=O)C2C4C3C21 (configuration not stated)
Experimental system: HCT-116
Class: class 0
--
Molecule: O=[N+]([O-])c1ccc(/C=N/Nc2nc3ccccc3[nH]2)o1
Experimental system: HCT-116
Class: class 0
--
Molecule: CCCC(OCC)(OCC)OCC
Experimental system: HCT-116
Class: class 0
--
Molecule: O=C(CSc1nnc(-c2ccccn2)s1)N/N=C/c1ccccc1
Experimental system: HCT-116
Class: class 0
--
Molecule: CC(=O)C1Cn2c(=O)c3cc4ccccc4cc3c(=O)n2C=C1C (configuration not stated)
Experimental system: HCT-116
Class: class 0
--
Molecule: Cc1cc2nc(N)n[n+]([O-])c2cc1C
Experimental system: HCT-116
Class: class 0
--
Molecule: CCN(CC)CCn1c2c3ccccc3ccc2c2oc(=O)c3ccccc3c21
Experimental system: HCT-116
Class: class 0
--
Molecule: CCOC(=O)c1cc(-c2ccc(Cl)cc2)c([N+](=O)[O-])n1C
Experimental system: HCT-116
Class: class 0
--
Molecule: COc1ccc(C2Cc3cc(OC)c(OC)c(OC)c3C2=O)cc1 (configuration not stated)
Experimental system: HCT-116
Class: class 0
--
Molecule: O=[N+]([O-])c1ccc(Cl)cc1N/N=C/c1ccnc2ccccc12
Experimental system: HCT-116
Class: class 0
--
Molecule: CC(=O)c1ccc2c(ccc(=O)n2C)c1
Experimental system: HCT-116
Class: class 0
--
Molecule: C=CCCCC1CCCNC1=O (configuration not stated)
Experimental system: HCT-116
Class: class 0
--
Molecule: Cc1cccc2c1Oc1cc(Cl)ccc1C2NC(=O)CCN1CCN(CCO)CC1 (configuration not stated)
Experimental system: HCT-116
Class: class 0
--
Molecule: COc1ccc2c(c1OC)C[C@@H]1c3c(cc4c(c3-2)OCO4)CCN1C
Experimental system: HCT-116
Class: class 0
--
Molecule: CCCCNC(=O)NNC(=O)c1cc(/C=C/c2cccc([N+](=O)[O-])c2)ncn1
Experimental system: HCT-116
Class: class 0
--
Molecule: COc1ccc(Oc2nc3cc(C(F)(F)F)ccc3nc2C(C)C)cc1
Experimental system: HCT-116
Class: class 0
--
Molecule: O=[N+]([O-])/C(C(Cl)=C(Cl)Cl)=C(\Nc1cccc2ccccc12)Sc1ccccc1
Experimental system: HCT-116
Class: class 0
--
Molecule: CCOC(=O)CNC(=O)C(CSC(=O)N(C)O)NC(=O)CCC(N)C(=O)O (configuration not stated)
Experimental system: HCT-116
Class: class 0
--
Molecule: Cc1ccc([S+]([O-])CC(CF)OCn2cc(C)c(=O)[nH]c2=O)cc1 (configuration not stated)
Experimental system: HCT-116
Class: class 0
--
Molecule: CCOC(=O)C(C(=O)c1ccccc1)=C1NCCN1
Experimental system: HCT-116
Class: class 0
--
Molecule: Cc1cc(C=O)c2c(=O)c3c(O)ccc(/C=C/C(C)C)c3oc2c1
Experimental system: HCT-116
Class: class 0
--
Molecule: CC1C2CC(CC2O)C1(C)C (configuration not stated)
Experimental system: HCT-116
Class: class 0
--
Molecule: CC1CC[C@@]2(OC1)O[C@H]1C[C@H]3[C@@H]4CC[C@H]5C[C@@H](OC6OC(CO)C(OC7OC(CO)C(OC8OC(CO)C(O)C(OC9OC(C)C(OC%10OC(C)C(O)C(O)C%10O)C(O)C9O)C8OC8OCC(O)C(O)C8O)C(O)C7O)C(O)C6O)CC[C@]5(C)[C@H]4CC(=O)[C@]3(C)[C@H]1[C@@H]2C (some centres not stated)
Experimental system: HCT-116
Class: class 0
--
Molecule: CCCC1C[C@H]2CCCCN2[C@H]2CCCN12 (some centres not stated)
Experimental system: HCT-116
Class: class 0
--
Molecule: O=c1c(O)cccn1C1OC(CO)C(O)C1O (configuration not stated)
Experimental system: HCT-116
Class: class 0
